Measured melting point by item

Record excerpt, results attached:
| chemical_smiles | readout_type | val |
| --- | --- | --- |
| CCCOC(=O)c1cnn(Cc2ccc(-c3noc(C(F)(F)F)n3)cc2)c1 | melting point | 105 to 115 °C |
| O=C(NC1CC1)c1cnn(Cc2ccc(-c3noc(C(F)(F)F)n3)cc2)c1 | melting point | 189 to 194 °C |
| COC(=O)c1cnn(Cc2ccc(-c3noc(C(F)(F)F)n3)cc2)c1 | melting point | 122 to 129 °C |

Okay, next one:
Please fill in: melting point reported for CN(C)C(=O)c1cnn(Cc2ccc(-c3noc(C(F)(F)F)n3)cc2)c1 = 124 to 129 °C
